Test: Tissue distribution after single oral administration in rats
Assay type: in vivo, rat
Conditions: rat; joint, 100 mg/kg PO, male Wistar rats, Estimated Value; read-out: AUC24
quantity name: AUC (ng·h/mL)
Expressed in ng·h/mL, but write only the number.

Ask | So what's the measured AUC for this one? COc1cc(Nc2ncnc(Nc3cc4c(cn3)NC(=O)C(C)(C)O4)n2)cc(OC)c1OC
Reply | 9650

* * *

Test: Tissue distribution after single oral administration in rats
Format: in vivo, rat
Details: male, Wistar, rat, spleen, po, 100 mg/kg, spleen, 100 mg/kg PO, male Wistar rats, 24 h, individual animals; read-out: Spleen concentration
quantity name: concentration at 24 h (µg/mL)
Expressed in µg/mL, but write only the number.

Ask | So what's the measured concentration at 24 h for this one? COc1cc(Nc2ncnc(Nc3cc4c(cn3)NC(=O)C(C)(C)O4)n2)cc(OC)c1OC [MT-SYK-03]
Reply | 0.0303

* * *

Assay: Tissue distribution after single oral administration in rats
Type: in vivo, rat
Conditions: male, Wistar, rat, kidney, po, 100 mg/kg, kidney, 100 mg/kg PO, male Wistar rats, 24 h, mean; read-out: Kidney concentration, Mean
quantity name: concentration at 24 h (µg/mL)
Expressed in µg/mL, but write only the number.

Ask | So what's the measured concentration at 24 h for this one? COc1cc(Nc2ncnc(Nc3cc4c(cn3)NC(=O)C(C)(C)O4)n2)cc(OC)c1OC [MT-SYK-03]
Reply | 0.0286

* * *

Assay: Tissue distribution after single oral administration in rats
Format: in vivo, rat
Details: male, Wistar, rat, liver, po, 100 mg/kg, liver, 100 mg/kg PO, male Wistar rats, 2 h, mean; read-out: Liver concentration, Mean
quantity name: concentration at 2 h (ng/mL)
Expressed in ng/mL, but write only the number.

Ask | So what's the measured concentration at 2 h for this one? COc1cc(Nc2ncnc(Nc3cc4c(cn3)NC(=O)C(C)(C)O4)n2)cc(OC)c1OC
Reply | 5250

* * *

Assay: Pharmacokinetics after single oral administration to rats
Assay type: in vivo, rat
Conditions: male, Wistar, rat, plasma, oral, 200 mg/kg, Table S8, 200 mg/kg PO, male Wistar rats, 1 h, mean of Rat#13-18; read-out: Plasma concentration, Mean
quantity name: concentration at 1 h (ng/mL)
Expressed in ng/mL, but write only the number.

Ask | So what's the measured concentration at 1 h for this one? COc1cc(Nc2ncnc(Nc3cc4c(cn3)NC(=O)C(C)(C)O4)n2)cc(OC)c1OC
Reply | 1220

* * *

Experiment: Tissue distribution after single oral administration in rats
Type: in vivo, rat
Details: rat; liver, 100 mg/kg PO, male Wistar rats, Estimated Value; read-out: Terminal t1/2 (converted)
quantity name: half-life (h)
Expressed in h, but write only the number.

Ask | So what's the measured half-life for this one? COc1cc(Nc2ncnc(Nc3cc4c(cn3)NC(=O)C(C)(C)O4)n2)cc(OC)c1OC
Reply | 3.28

* * *

Assay: Pharmacokinetics after single oral administration to rats
Type: in vivo, rat
Conditions: male, Wistar, rat, plasma, oral, 200 mg/kg, Table S8, 200 mg/kg PO, male Wistar rats, 0.5 h, individual Rat#13-18; read-out: Plasma concentration
quantity name: concentration at 0.5 h (ng/mL)
Expressed in ng/mL, but write only the number.

Ask | So what's the measured concentration at 0.5 h for this one? COc1cc(Nc2ncnc(Nc3cc4c(cn3)NC(=O)C(C)(C)O4)n2)cc(OC)c1OC
Reply | 858
